B1: glmS ribozyme (parent)
chain: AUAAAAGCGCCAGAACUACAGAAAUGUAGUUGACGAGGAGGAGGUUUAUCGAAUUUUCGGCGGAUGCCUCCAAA

# Variants of: B1
# PROCEDURE_DETAILS: self-cleavage kobs at 640 uM GlcN6P; higher = faster cleavage; RNA array
# CONDITION_DETAILS: with glucosamine-6-phosphate
Variants at the floor of the assay were thinned out.

>  <MUTANT_LABEL>
C8U U47G

>  <self-cleavage kobs at 640 uM GlcN6P>
< 1e-05 s⁻¹

$$$$
>  <MUTANT_LABEL>
A12U G35A G40U

>  <self-cleavage kobs at 640 uM GlcN6P>
< 1e-05 s⁻¹

$$$$
>  <MUTANT_LABEL>
G29U G35U G38U A52G

>  <self-cleavage kobs at 640 uM GlcN6P>
< 1e-05 s⁻¹

$$$$
>  <MUTANT_LABEL>
A6C A12G C68G C70G

>  <self-cleavage kobs at 640 uM GlcN6P>
< 1e-05 s⁻¹

$$$$
>  <MUTANT_LABEL>
U49A U57G

>  <self-cleavage kobs at 640 uM GlcN6P>
< 1e-05 s⁻¹

$$$$
>  <MUTANT_LABEL>
A33U G38A A39G

>  <self-cleavage kobs at 640 uM GlcN6P>
< 1e-05 s⁻¹

$$$$
>  <MUTANT_LABEL>
C19A G43U

>  <self-cleavage kobs at 640 uM GlcN6P>
< 1e-05 s⁻¹

$$$$
>  <MUTANT_LABEL>
A48U C58U A64C

>  <self-cleavage kobs at 640 uM GlcN6P>
< 1e-05 s⁻¹

$$$$
>  <MUTANT_LABEL>
U31A G43A

>  <self-cleavage kobs at 640 uM GlcN6P>
< 1e-05 s⁻¹

$$$$
>  <MUTANT_LABEL>
G7C G41C

>  <self-cleavage kobs at 640 uM GlcN6P>
< 1e-05 s⁻¹

$$$$
>  <MUTANT_LABEL>
A36G A42G A52G

>  <self-cleavage kobs at 640 uM GlcN6P>
< 1e-05 s⁻¹

$$$$
>  <MUTANT_LABEL>
A6C C8A

>  <self-cleavage kobs at 640 uM GlcN6P>
< 1e-05 s⁻¹

$$$$
>  <MUTANT_LABEL>
G9C A15G G38C G60A

>  <self-cleavage kobs at 640 uM GlcN6P>
< 1e-05 s⁻¹

$$$$
>  <MUTANT_LABEL>
A48G U49C

>  <self-cleavage kobs at 640 uM GlcN6P>
< 1e-05 s⁻¹

$$$$
>  <MUTANT_LABEL>
C8G G63A

>  <self-cleavage kobs at 640 uM GlcN6P>
< 1e-05 s⁻¹

$$$$
>  <MUTANT_LABEL>
G43U G44A

>  <self-cleavage kobs at 640 uM GlcN6P>
< 1e-05 s⁻¹

$$$$
>  <MUTANT_LABEL>
C8A A15G

>  <self-cleavage kobs at 640 uM GlcN6P>
< 1e-05 s⁻¹

$$$$
>  <MUTANT_LABEL>
G60U A64G

>  <self-cleavage kobs at 640 uM GlcN6P>
< 1e-05 s⁻¹

$$$$
>  <MUTANT_LABEL>
A6C G7U G35A C58U G60A

>  <self-cleavage kobs at 640 uM GlcN6P>
< 1e-05 s⁻¹

$$$$
>  <MUTANT_LABEL>
G32C G51C A64G C70U

>  <self-cleavage kobs at 640 uM GlcN6P>
< 1e-05 s⁻¹

$$$$
>  <MUTANT_LABEL>
A12U G32C G35C A42U

>  <self-cleavage kobs at 640 uM GlcN6P>
< 1e-05 s⁻¹

$$$$
>  <MUTANT_LABEL>
G37U G59A

>  <self-cleavage kobs at 640 uM GlcN6P>
< 1e-05 s⁻¹

$$$$
>  <MUTANT_LABEL>
C10G A36G

>  <self-cleavage kobs at 640 uM GlcN6P>
< 1e-05 s⁻¹

$$$$
>  <MUTANT_LABEL>
U47C U54G G60A

>  <self-cleavage kobs at 640 uM GlcN6P>
< 1e-05 s⁻¹

$$$$
>  <MUTANT_LABEL>
C11U C16A G44C

>  <self-cleavage kobs at 640 uM GlcN6P>
< 1e-05 s⁻¹

$$$$
>  <MUTANT_LABEL>
A6U U55G A64C

>  <self-cleavage kobs at 640 uM GlcN6P>
< 1e-05 s⁻¹

$$$$
>  <MUTANT_LABEL>
C11A G37C G62A

>  <self-cleavage kobs at 640 uM GlcN6P>
< 1e-05 s⁻¹

$$$$
>  <MUTANT_LABEL>
C61A A64C

>  <self-cleavage kobs at 640 uM GlcN6P>
< 1e-05 s⁻¹

$$$$
>  <MUTANT_LABEL>
U31G C34G U65A

>  <self-cleavage kobs at 640 uM GlcN6P>
< 1e-05 s⁻¹

$$$$
>  <MUTANT_LABEL>
U30C U31C G59U C61G C70G

>  <self-cleavage kobs at 640 uM GlcN6P>
< 1e-05 s⁻¹

$$$$
>  <MUTANT_LABEL>
C8U G35A G60C U65G

>  <self-cleavage kobs at 640 uM GlcN6P>
< 1e-05 s⁻¹

$$$$
>  <MUTANT_LABEL>
G29U G41A

>  <self-cleavage kobs at 640 uM GlcN6P>
5.62e-05 s⁻¹

$$$$
>  <MUTANT_LABEL>
A15C A64U

>  <self-cleavage kobs at 640 uM GlcN6P>
< 1e-05 s⁻¹

$$$$
>  <MUTANT_LABEL>
A15C G35A

>  <self-cleavage kobs at 640 uM GlcN6P>
< 1e-05 s⁻¹

$$$$
>  <MUTANT_LABEL>
U54A C68U

>  <self-cleavage kobs at 640 uM GlcN6P>
0.000767 s⁻¹

$$$$
>  <MUTANT_LABEL>
G13C

>  <self-cleavage kobs at 640 uM GlcN6P>
2.7e-05 s⁻¹

$$$$
>  <MUTANT_LABEL>
A42G C71A

>  <self-cleavage kobs at 640 uM GlcN6P>
0.00207 s⁻¹

$$$$
>  <MUTANT_LABEL>
A15C A33C A36C

>  <self-cleavage kobs at 640 uM GlcN6P>
< 1e-05 s⁻¹

$$$$
>  <MUTANT_LABEL>
A33C U47C U65G

>  <self-cleavage kobs at 640 uM GlcN6P>
< 1e-05 s⁻¹

$$$$
>  <MUTANT_LABEL>
U69A C71G

>  <self-cleavage kobs at 640 uM GlcN6P>
5.27e-05 s⁻¹

$$$$
>  <MUTANT_LABEL>
G13U A14U C58A C67U

>  <self-cleavage kobs at 640 uM GlcN6P>
0.000194 s⁻¹

$$$$
>  <MUTANT_LABEL>
C58G C68A

>  <self-cleavage kobs at 640 uM GlcN6P>
0.000125 s⁻¹

$$$$
>  <MUTANT_LABEL>
G63A

>  <self-cleavage kobs at 640 uM GlcN6P>
< 1e-05 s⁻¹

$$$$
>  <MUTANT_LABEL>
U46A U56A

>  <self-cleavage kobs at 640 uM GlcN6P>
0.000307 s⁻¹

$$$$
>  <MUTANT_LABEL>
C11U A14U

>  <self-cleavage kobs at 640 uM GlcN6P>
0.000266 s⁻¹

$$$$
>  <MUTANT_LABEL>
U55A U56G

>  <self-cleavage kobs at 640 uM GlcN6P>
0.00368 s⁻¹

$$$$
>  <MUTANT_LABEL>
G9U A42U A48C C50G G63C C67U

>  <self-cleavage kobs at 640 uM GlcN6P>
< 1e-05 s⁻¹

$$$$
>  <MUTANT_LABEL>
G13A U69G

>  <self-cleavage kobs at 640 uM GlcN6P>
7.5e-05 s⁻¹

$$$$
>  <MUTANT_LABEL>
C8A C58G

>  <self-cleavage kobs at 640 uM GlcN6P>
< 1e-05 s⁻¹

$$$$
>  <MUTANT_LABEL>
C34U C50G A53U C68G

>  <self-cleavage kobs at 640 uM GlcN6P>
0.000541 s⁻¹

$$$$
>  <MUTANT_LABEL>
A14C G32C C71U

>  <self-cleavage kobs at 640 uM GlcN6P>
7.58e-05 s⁻¹

$$$$
>  <MUTANT_LABEL>
G9A A12C

>  <self-cleavage kobs at 640 uM GlcN6P>
< 1e-05 s⁻¹

$$$$
>  <MUTANT_LABEL>
A6C C16G G37C A39G U45G U47A

>  <self-cleavage kobs at 640 uM GlcN6P>
< 1e-05 s⁻¹

$$$$
>  <MUTANT_LABEL>
G7A U30C A64C

>  <self-cleavage kobs at 640 uM GlcN6P>
< 1e-05 s⁻¹

$$$$
>  <MUTANT_LABEL>
C8A A36U U45C U57A

>  <self-cleavage kobs at 640 uM GlcN6P>
< 1e-05 s⁻¹

$$$$
>  <MUTANT_LABEL>
A39U U65G

>  <self-cleavage kobs at 640 uM GlcN6P>
0.000445 s⁻¹

$$$$
>  <MUTANT_LABEL>
G9A G44C C68U U69A

>  <self-cleavage kobs at 640 uM GlcN6P>
< 1e-05 s⁻¹

$$$$
>  <MUTANT_LABEL>
C67U U69A

>  <self-cleavage kobs at 640 uM GlcN6P>
5e-05 s⁻¹

$$$$
>  <MUTANT_LABEL>
G9C U45G

>  <self-cleavage kobs at 640 uM GlcN6P>
< 1e-05 s⁻¹

$$$$
>  <MUTANT_LABEL>
G7A G40A A42C C67G

>  <self-cleavage kobs at 640 uM GlcN6P>
< 1e-05 s⁻¹

$$$$
